The entries below are paired with their reported pKd.
# MEASUREMENT_TARGET: T1, I-CreI wild type (Chlamydomonas reinhardtii, UniProt P05725 SEQ:1-163)
# T1 sequence: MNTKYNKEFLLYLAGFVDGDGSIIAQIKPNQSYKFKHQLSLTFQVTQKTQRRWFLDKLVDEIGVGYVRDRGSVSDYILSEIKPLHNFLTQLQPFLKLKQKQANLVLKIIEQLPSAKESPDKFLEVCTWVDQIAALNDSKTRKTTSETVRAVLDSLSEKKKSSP
# MEASUREMENT_DESCRIPTION: FP; 400 mM NaCl, 10 mM CaCl2, pH8, 25 C
# CONDITION_INFO: tags: C-terminal 6xHis, E. coli BL21; chain copies: 2 (inferred); label: 5' fluorescein on forward strand
Just so you know, pKd here is -log10 of the concentration in molar units; reply with that number alone.

> print(dat)
                                     binder  value.measured
1  C1234_Me-5b (dsDNA, 5mC at -5b) DNA 1: TCAAAACGTCGTGAGACAGTTTGG DNA 2: CCAAACTGTCTCACGACGTTTTGA            7.62

We now examine a further binder.
Return pKd for the following binder: C1234_Me-2b (dsDNA, 5mC at -2b) DNA 1: TCAAAACGTCGTGAGACAGTTTGG DNA 2: CCAAACTGTCTCACGACGTTTTGA 7.39
